molecular target: PI4K2B (PI4K2 beta) (Homo sapiens, UniProt Q8TCG2); construct: purchased Thermo Fisher Scientific; test: Kinase panel study; assay type: biochemical; conditions: PI4K2B (PI4K2 beta); compound at 10µM; read-out: % of Inhibition
Sequence (Q8TCG2 whole entry): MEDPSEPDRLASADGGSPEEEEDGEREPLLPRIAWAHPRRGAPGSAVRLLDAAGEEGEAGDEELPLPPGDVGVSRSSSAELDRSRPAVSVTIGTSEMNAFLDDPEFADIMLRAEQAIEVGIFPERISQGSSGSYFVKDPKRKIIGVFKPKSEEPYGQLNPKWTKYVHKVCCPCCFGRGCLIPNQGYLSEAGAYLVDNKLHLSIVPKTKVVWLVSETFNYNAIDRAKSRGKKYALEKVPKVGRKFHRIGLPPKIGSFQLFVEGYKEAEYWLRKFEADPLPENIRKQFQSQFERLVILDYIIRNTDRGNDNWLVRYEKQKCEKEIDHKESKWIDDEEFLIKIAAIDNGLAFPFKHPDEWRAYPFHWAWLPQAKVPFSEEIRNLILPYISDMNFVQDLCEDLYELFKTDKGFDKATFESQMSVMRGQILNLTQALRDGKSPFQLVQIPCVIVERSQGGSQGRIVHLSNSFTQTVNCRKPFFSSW
measureName: inhibition at 10 µM (%)

- compound: "O=c1c2cc(O)ccc2c2nccc3c4cc(O)ccc4n1c32"
  inhibition at 10 µM, %: 22
- compound: "COc1ccc2c(c1)c1ccnc3c4nc(OC)ccc4c(=O)n2c13"
  inhibition at 10 µM, %: 11
- compound: "O=c1c2cnccc2c2nccc3c4cc(O)ccc4n1c32"
  inhibition at 10 µM, %: 24

1. COc1ccc2c(c1)c1ccnc3c4ccnc(OC)c4c(=O)n2c13
2. COc1ccc2nc3c(cc2c1)c(N)nn3C(=O)c1cccc(N(C)C)c1 [MW05-E2]
Request: In the pair 1 and 2 , the larger recorded inhibition at 10 µM belongs to which? Output the label that corresponds to your choice.
Response: 1

###

target: PIP5K1C (Homo sapiens); construct: purchased Thermo Fisher Scientific; assay: Kinase panel study; format: biochemical; conditions: PIP5K1C; compound at 10µM; read-out: % of Inhibition
Sequence (O60331 whole entry): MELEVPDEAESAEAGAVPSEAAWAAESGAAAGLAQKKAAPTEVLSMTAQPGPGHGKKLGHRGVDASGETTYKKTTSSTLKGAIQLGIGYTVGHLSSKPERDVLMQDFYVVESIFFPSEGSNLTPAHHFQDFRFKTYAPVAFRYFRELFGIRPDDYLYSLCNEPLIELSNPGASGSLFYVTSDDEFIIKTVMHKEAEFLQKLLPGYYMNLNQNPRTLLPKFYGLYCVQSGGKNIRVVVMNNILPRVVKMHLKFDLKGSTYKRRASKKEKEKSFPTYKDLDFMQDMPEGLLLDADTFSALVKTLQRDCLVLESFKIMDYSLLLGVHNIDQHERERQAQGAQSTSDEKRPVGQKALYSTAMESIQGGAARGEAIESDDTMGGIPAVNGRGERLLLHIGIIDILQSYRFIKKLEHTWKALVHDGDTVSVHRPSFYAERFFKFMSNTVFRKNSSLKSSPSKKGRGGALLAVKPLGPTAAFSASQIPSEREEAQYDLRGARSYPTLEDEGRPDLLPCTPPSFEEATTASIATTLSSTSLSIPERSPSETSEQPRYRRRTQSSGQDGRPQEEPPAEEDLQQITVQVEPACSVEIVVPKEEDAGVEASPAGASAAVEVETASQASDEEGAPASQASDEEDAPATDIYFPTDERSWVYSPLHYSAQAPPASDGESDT
measureName: inhibition at 10 µM (%)

- molecule: "O=c1c2cnccc2c2nccc3c4cc(O)ccc4n1c32 [MW01-E18]"
  testedOn: "PIP5K1C (Homo sapiens)"
  quantitativeReadout: 27
- molecule: "COc1ccc2c(c1)c1ccnc3c4ccnc(OC)c4c(=O)n2c13 [MW01-E14]"
  testedOn: "PIP5K1C (Homo sapiens)"
  quantitativeReadout: 8
- molecule: "COc1ccc2nc3c(cc2c1)c(N)nn3C(=O)c1cccc(N(C)C)c1 [MW05-E2]"
  testedOn: "PIP5K1C (Homo sapiens)"
  quantitativeReadout: -2

P. COc1ccc2c(c1)c1ccnc3c4nc(OC)ccc4c(=O)n2c13 [MW01-E6]
Q. O=c1c2cc(O)ccc2c2nccc3c4cc(O)ccc4n1c32 [MW01-E10]
Request: In the pair P and Q , the larger recorded inhibition at 10 µM belongs to which? Output the label that corresponds to your choice.
Response: Q

###

molecular target: CSF1R (FMS) (Homo sapiens); construct: purchased Thermo Fisher Scientific; assay: Kinase panel study; format: biochemical; conditions: CSF1R (FMS); compound at 10µM; read-out: % of Inhibition
Sequence (P07333 20-972): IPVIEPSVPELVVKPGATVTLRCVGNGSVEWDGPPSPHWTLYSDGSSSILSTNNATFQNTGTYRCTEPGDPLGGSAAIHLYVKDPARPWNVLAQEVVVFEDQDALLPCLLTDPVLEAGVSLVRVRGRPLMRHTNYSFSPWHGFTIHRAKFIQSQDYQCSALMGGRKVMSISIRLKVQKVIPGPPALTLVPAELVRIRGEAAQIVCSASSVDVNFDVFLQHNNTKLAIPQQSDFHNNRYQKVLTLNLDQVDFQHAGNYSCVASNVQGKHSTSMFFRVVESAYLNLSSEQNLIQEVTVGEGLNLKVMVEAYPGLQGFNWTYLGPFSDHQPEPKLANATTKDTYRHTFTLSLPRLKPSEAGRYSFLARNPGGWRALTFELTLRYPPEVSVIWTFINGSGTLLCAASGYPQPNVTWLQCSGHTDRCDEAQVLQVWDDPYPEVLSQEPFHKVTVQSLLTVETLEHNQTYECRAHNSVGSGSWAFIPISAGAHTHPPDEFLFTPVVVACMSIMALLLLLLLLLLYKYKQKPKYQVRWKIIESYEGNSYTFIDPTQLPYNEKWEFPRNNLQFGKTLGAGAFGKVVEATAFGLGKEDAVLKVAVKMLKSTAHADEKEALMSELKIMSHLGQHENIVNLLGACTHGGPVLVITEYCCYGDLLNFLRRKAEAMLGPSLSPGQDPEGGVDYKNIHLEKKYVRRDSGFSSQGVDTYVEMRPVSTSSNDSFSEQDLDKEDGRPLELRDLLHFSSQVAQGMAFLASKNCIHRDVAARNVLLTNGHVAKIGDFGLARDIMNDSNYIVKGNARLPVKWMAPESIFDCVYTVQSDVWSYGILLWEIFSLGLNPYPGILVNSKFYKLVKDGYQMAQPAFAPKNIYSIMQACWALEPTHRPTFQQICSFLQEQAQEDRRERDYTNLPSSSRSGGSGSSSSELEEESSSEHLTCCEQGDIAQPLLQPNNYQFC
measureName: inhibition at 10 µM (%)

Example results:
- compound: "O=c1c2cc(O)ccc2c2nccc3c4cc(O)ccc4n1c32 [MW01-E10]"
  quantitativeReadout: 61
- compound: "COc1ccc2c(c1)c1ccnc3c4ccnc(OC)c4c(=O)n2c13 [MW01-E14]"
  quantitativeReadout: 18
- compound: "COc1ccc2nc3c(cc2c1)c(N)nn3C(=O)c1cccc(N(C)C)c1 [MW05-E2]"
  quantitativeReadout: 20

I. O=c1c2cnccc2c2nccc3c4cc(O)ccc4n1c32 [MW01-E18]
II. COc1ccc2c(c1)c1ccnc3c4nc(OC)ccc4c(=O)n2c13 [MW01-E6]
Request: In the pair I and II , the larger recorded inhibition at 10 µM belongs to which? Output the label that corresponds to your choice.
Response: I
(I: 57%, II: 33%)

###

Target: MAP4K2 (GCK) (Homo sapiens)
Construct: purchased Thermo Fisher Scientific
Sequence (Q12851 1-820): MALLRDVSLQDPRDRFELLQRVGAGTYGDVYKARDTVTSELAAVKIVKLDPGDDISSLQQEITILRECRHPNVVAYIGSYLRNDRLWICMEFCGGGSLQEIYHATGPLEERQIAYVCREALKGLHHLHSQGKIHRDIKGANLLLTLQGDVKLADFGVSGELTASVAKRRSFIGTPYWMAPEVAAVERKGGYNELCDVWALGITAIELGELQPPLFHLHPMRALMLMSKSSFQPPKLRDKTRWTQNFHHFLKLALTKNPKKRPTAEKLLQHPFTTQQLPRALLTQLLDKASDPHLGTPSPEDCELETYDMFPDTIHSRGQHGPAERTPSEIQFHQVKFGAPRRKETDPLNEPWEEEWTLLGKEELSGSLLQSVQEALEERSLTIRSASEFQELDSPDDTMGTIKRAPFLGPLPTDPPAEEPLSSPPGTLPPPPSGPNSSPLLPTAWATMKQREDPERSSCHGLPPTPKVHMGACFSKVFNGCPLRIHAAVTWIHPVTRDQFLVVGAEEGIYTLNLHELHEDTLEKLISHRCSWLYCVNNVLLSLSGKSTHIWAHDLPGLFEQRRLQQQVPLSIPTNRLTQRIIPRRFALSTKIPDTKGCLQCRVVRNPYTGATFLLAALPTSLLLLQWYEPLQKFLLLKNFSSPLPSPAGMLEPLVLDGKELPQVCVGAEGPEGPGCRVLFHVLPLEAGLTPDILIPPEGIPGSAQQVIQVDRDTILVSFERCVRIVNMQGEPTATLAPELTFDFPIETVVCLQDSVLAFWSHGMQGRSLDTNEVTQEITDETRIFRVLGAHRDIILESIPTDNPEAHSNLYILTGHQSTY
Experiment: Kinase panel study
Type: biochemical
Details: MAP4K2 (GCK); compound at 10µM; read-out: % of Inhibition
measureName: inhibition at 10 µM (%)

Example results:
- compound: "COc1ccc2c(c1)c1ccnc3c4ccnc(OC)c4c(=O)n2c13"
  testedOn: "MAP4K2 (GCK) (Homo sapiens)"
  units: "%"
  inhibition at 10 µM: 81
- compound: "COc1ccc2c(c1)c1ccnc3c4nc(OC)ccc4c(=O)n2c13"
  testedOn: "MAP4K2 (GCK) (Homo sapiens)"
  units: "%"
  inhibition at 10 µM: 70

A. O=c1c2cnccc2c2nccc3c4cc(O)ccc4n1c32
B. COc1ccc2nc3c(cc2c1)c(N)nn3C(=O)c1cccc(N(C)C)c1 [MW05-E2]
Request: In the pair A and B , the larger recorded inhibition at 10 µM belongs to which? Output the label that corresponds to your choice.
Response: A
(A: 93%, B: 2%)

Values compiled from patent EP4467141A1.
